- SYSTEM: AmpC (PAE) (Pseudomonas aeruginosa, UniProt P24735)
- Sequence (P24735 27-397): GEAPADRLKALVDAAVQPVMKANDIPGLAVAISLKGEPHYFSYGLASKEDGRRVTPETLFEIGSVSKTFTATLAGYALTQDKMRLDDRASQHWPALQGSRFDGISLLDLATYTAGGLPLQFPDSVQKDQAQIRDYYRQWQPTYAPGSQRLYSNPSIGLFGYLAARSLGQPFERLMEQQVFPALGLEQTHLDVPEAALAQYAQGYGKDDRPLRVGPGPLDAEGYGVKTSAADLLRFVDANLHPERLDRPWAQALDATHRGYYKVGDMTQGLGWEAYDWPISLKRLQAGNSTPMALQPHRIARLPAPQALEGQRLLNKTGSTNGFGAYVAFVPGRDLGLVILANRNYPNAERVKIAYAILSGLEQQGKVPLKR
- TEST_METHOD_NOTES: biochemical
Listing: IC50 of selected molecules
Just so you know, I need the unit written after the number.

See these solved cases before continuing.
>>> data_value("NC[C@@H]1C(c2ncco2)=C[C@@H]2CN1C(=O)N2OS(=O)(=O)[O-].O=C(O)C(F)(F)F.[Na+] [Example 5, sulfate]")
"12 µM"
>>> data_value("NC[C@@H]1C=C(c2cnco2)[C@@H]2CN1C(=O)N2OC(F)(F)C(=O)O (relative stereo)")
"0.22 µM"
>>> data_value("NC[C@@H]1C(c2nccs2)=C[C@@H]2CN1C(=O)N2OS(=O)(=O)[O-].O=C(O)C(F)(F)F.[Na+] [Example 2, sulfate]")
"0.11 µM"

Shifting focus to the molecule that follows.
Value of measured IC50 for the entry Cn1cc(C2=C[C@@H](CN)N3C[C@@H]2N(OS(=O)(=O)O)C3=O)cnc1=O (relative stereo) : 38 µM

---

- Tested on: P. aeruginosa CIP107051 (TEM-24)
- TEST_METHOD_NOTES: MIC of compounds and synergy with ceftazidime (broth microdilution)
- Assay type: cell-based
- TEST_SETTINGS: MIC of ceftazidime with compound fixed at 4 μg/mL; strain CIP107051 (P. aeruginosa)
Structures can show the parent of a compound that is named as a salt.
VALUE_TYPE: MIC, combination of CAZ and compounds of the invention

>>> data_value("Cn1cc(C2=C[C@@H](CN)N3C[C@@H]2N(OS(=O)(=O)O)C3=O)cnc1=O (relative stereo)")
"32 µg/mL"
>>> data_value("NC[C@@H]1C=C(c2cnco2)[C@@H]2CN1C(=O)N2OS(=O)(=O)O (relative stereo) [Example 1, sulfate]")
"<0.25 µg/mL"

For record NC[C@@H]1C=C(c2cnco2)[C@@H]2CN1C(=O)N2OC(F)(F)C(=O)O (relative stereo) the listed MIC, combination of CAZ and compounds of the invention is ≤0.25 µg/mL

Noted for `NC[C@@H]1C(c2ncco2)=C[C@@H]2CN1C(=O)N2OS(=O)(=O)[O-].O=C(O)C(F)(F)F.[Na+]` : its MIC, combination of CAZ and compounds of the invention reads <0.25 µg/mL

Per the records, this compound ( `NC[C@@H]1C(c2nccs2)=C[C@@H]2CN1C(=O)N2OS(=O)(=O)[O-].O=C(O)C(F)(F)F.[Na+]` ) has MIC, combination of CAZ and compounds of the invention equal to <0.25 µg/mL

Looking up `N=C(N)NC[C@@H]1C(c2nccs2)=C[C@@H]2CN1C(=O)N2OS(=O)(=O)O` , I found its MIC, combination of CAZ and compounds of the invention recorded as 1 µg/mL

---

- Test system: E. coli 131119 (TEM-1, OXA-48)
- TEST_METHOD_NOTES: MIC of compounds and synergy with ceftazidime (broth microdilution)
- Type: cell-based
- TEST_SETTINGS: Escherichia coli, 18 h; strain 131119 (E. coli); read-out: MIC compounds of the invention alone
Counter-ions that a name gives are not always drawn.
Listed next: entries and their corresponding MIC.
Please state the figure in mg/L; there is no need to write the unit.

Guide cases for MIC, answers given:
>>> data_value("N=C(N)NC[C@@H]1C(c2nccs2)=C[C@@H]2CN1C(=O)N2OS(=O)(=O)O")
0.031
>>> data_value("NC[C@@H]1C(c2ncco2)=C[C@@H]2CN1C(=O)N2OS(=O)(=O)[O-].O=C(O)C(F)(F)F.[Na+]")
0.063

MIC recorded for this molecule, NC[C@@H]1C=C(c2cnco2)[C@@H]2CN1C(=O)N2OS(=O)(=O)O (relative stereo) [Example 1, sulfate] , is 32
